testDescription: MRT in Sprague-Dawley rat at 5 mg/kg, iv measured up to 48 hrs by LC-MS/MS analysis
Assay type: ADME, organism-based
conditionDescription: in vivo

compoundStructureString	MRT
COC[C@H](NC(=O)[C@H](CC(=O)NCC(C)(C)C)NS(=O)(=O)c1ccc(C)cc1)C(=O)N[C@@H](CC(C)C)C(=O)c1ccco1	20.2 min

###

testDescription: AUC(0 to t) in Sprague-Dawley rat at 5 mg/kg, iv measured up to 48 hrs by LC-MS/MS analysis
Assay type: ADME, organism-based
Set-up: route intravenous, dose 5 mg/kg, time <=48
conditionDescription: in vivo
parameter: AUC(0-t) at 48 h (ng·h/mL)

compoundStructureString	quantityUnit	quantitativeReadout
COC[C@H](NC(=O)[C@H](CC(=O)NCC(C)(C)C)NS(=O)(=O)c1ccc(C)cc1)C(=O)N[C@@H](CC(C)C)C(=O)c1ccco1	ng·h/mL	680

###

testDescription: Cmax in Sprague-Dawley rat at 4 mg/kg, iv measured up to 48 hrs by LC-MS/MS analysis
Assay type: ADME, organism-based
Parameters: route intravenous, dose 4 mg/kg, time <=48
conditionDescription: in vivo
parameter: Cmax (ng/mL)

compoundStructureString	parameter	quantitativeReadout
CC(C)C[C@H](NC(=O)[C@H](CCc1ccccc1)NC(=O)CN1CCOCC1)C(=O)N[C@@H](Cc1ccccc1)C(=O)N[C@@H](CC(C)C)C(=O)[C@@]1(C)CO1	Cmax	27800

###

testDescription: Volume of distribution at steady state in Sprague-Dawley rat at 4 mg/kg, iv measured up to 48 hrs by LC-MS/MS analysis
conditionDescription: in vivo

compoundStructureString	Vd at 48 h (L/kg)
CC(C)C[C@H](NC(=O)[C@H](CCc1ccccc1)NC(=O)CN1CCOCC1)C(=O)N[C@@H](Cc1ccccc1)C(=O)N[C@@H](CC(C)C)C(=O)[C@@]1(C)CO1	0.3

###

inhibition listing for selected compounds.
measuredOn: Proteasome Macropain subunit MB1 (Homo sapiens) (UniProt P28074)
Sequence (whole entry): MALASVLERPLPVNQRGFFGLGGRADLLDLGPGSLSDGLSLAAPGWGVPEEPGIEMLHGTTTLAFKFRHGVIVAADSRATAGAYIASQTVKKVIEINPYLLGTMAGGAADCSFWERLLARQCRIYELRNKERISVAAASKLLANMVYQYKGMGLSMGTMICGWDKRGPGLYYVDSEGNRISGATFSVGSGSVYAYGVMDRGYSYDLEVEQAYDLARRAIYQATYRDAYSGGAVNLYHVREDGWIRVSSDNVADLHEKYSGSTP
testDescription: Inhibition of chymotrypsin-like activity of human 20S proteasome beta5 subunit at 50 uM using Suc-LLVY-Glo as substrate incubated for 2 hrs followed by substrate addition and measured for 10 mins by bioluminescent assay relative to control
conditionDescription: time 130.0 min

compoundStructureString	measuredOn	inhibition
COC[C@H](NC(=O)[C@H](Cc1ccc(OC)cc1)NC(=O)OC(C)(C)C)C(=O)N[C@@H](CC(C)C)C(=O)c1ccco1	Proteasome Macropain subunit MB1 (Homo sapiens) (UniProt P28074)	> 50%
COC[C@H](NC(=O)[C@H](Cc1ccccc1)NC(=O)OC(C)(C)C)C(=O)N[C@@H](CC(C)C)C(=O)c1ccco1	Proteasome Macropain subunit MB1 (Homo sapiens) (UniProt P28074)	> 50%
CC(C)C[C@H](NC(=O)[C@H](Cc1ccc(Cl)cc1)NC(=O)[C@H](Cc1ccccc1)NC(=O)OCc1ccccc1)C(=O)c1ccco1	Proteasome Macropain subunit MB1 (Homo sapiens) (UniProt P28074)	> 50%
COC[C@H](NC(=O)[C@H](CC(=O)NCC(C)(C)C)NS(=O)(=O)c1ccc(C)cc1)C(=O)N[C@@H](CC(C)C)C(=O)c1ccco1	Proteasome Macropain subunit MB1 (Homo sapiens) (UniProt P28074)	> 50%
COc1ccc(C[C@H](NC(=O)c2cnccn2)C(=O)N[C@@H](Cc2ccc(O)cc2)C(=O)N[C@@H](CC(C)C)C(=O)c2ccco2)cc1	Proteasome Macropain subunit MB1 (Homo sapiens) (UniProt P28074)	> 50%
CC(C)C[C@H](NC(=O)[C@H](C)NC(=O)[C@H](Cc1ccccc1)NC(=O)OC(C)(C)C)C(=O)c1ccco1	Proteasome Macropain subunit MB1 (Homo sapiens) (UniProt P28074)	> 50%
COc1ccc(C[C@H](NC(=O)OC(C)(C)C)C(=O)N[C@@H](C)C(=O)N[C@@H](CC(C)C)C(=O)c2ccco2)cc1	Proteasome Macropain subunit MB1 (Homo sapiens) (UniProt P28074)	> 50%

###

IC50 listing for selected compounds.
measuredOn: Proteasome Macropain subunit MB1 (Homo sapiens, UniProt P28074)
Sequence (P28074 whole entry): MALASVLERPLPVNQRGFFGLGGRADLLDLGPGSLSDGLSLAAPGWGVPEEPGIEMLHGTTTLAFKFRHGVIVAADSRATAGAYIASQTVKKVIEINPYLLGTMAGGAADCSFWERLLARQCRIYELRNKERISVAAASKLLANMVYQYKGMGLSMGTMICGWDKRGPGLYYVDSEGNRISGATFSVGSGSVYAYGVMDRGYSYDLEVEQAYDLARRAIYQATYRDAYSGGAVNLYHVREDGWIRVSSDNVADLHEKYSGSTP
testDescription: Inhibition of chymotrypsin-like activity of human 20S proteasome beta5 subunit using Suc-LLVY-Glo as substrate incubated for 2 hrs followed by substrate addition and measured for 10 mins by bioluminescent assay
parameter: IC50

compoundStructureString	parameter	result
CC(C)C[C@H](NC(=O)[C@H](Cc1ccc(O)cc1)NC(=O)[C@H](Cc1ccc(O)cc1)NC(=O)c1ccc(CO)cc1)C(=O)c1ccco1	IC50	4.56 µM
COc1ccc(C[C@H](NC(=O)[C@H](Cc2ccccc2)NC(=O)c2ccccc2C)C(=O)N[C@@H](CC(C)C)C(=O)c2ccco2)cc1	IC50	3.19 µM
COc1ccc(C[C@H](NC(=O)[C@H](Cc2ccccc2)NC(=O)c2ccccc2OC)C(=O)N[C@@H](CC(C)C)C(=O)c2ccco2)cc1	IC50	> 50 µM
CC(C)C[C@H](NC(=O)[C@H](C)NC(=O)[C@H](Cc1ccccc1)NC(=O)OCc1ccccc1)C(=O)c1ccco1	IC50	> 50 µM

###

testDescription: Half life in Sprague-Dawley rat at 4 mg/kg, iv measured up to 48 hrs by LC-MS/MS analysis
conditionDescription: in vivo

compoundStructureString	half-life at 48 h
CC(C)C[C@H](NC(=O)[C@H](CCc1ccccc1)NC(=O)CN1CCOCC1)C(=O)N[C@@H](Cc1ccccc1)C(=O)N[C@@H](CC(C)C)C(=O)[C@@]1(C)CO1	17 min

###

measuredOn: Proteasome Macropain subunit MB1 (Homo sapiens, UniProt P28074)
Sequence (P28074 whole entry): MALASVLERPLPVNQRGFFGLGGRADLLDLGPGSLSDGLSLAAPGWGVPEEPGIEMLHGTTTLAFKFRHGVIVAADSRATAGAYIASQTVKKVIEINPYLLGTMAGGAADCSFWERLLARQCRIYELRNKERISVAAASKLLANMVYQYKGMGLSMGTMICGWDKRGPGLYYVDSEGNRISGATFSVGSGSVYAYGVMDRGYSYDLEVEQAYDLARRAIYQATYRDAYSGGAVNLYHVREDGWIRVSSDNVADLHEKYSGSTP
testDescription: Binding affinity to immobilized human 20S proteasome beta 5 subunit by SPR analysis
pKd: −log10 of the molar value.

compoundStructureString	pKd
COC[C@H](NC(=O)[C@H](CC(=O)NCC(C)(C)C)NS(=O)(=O)c1ccc(C)cc1)C(=O)N[C@@H](CC(C)C)C(=O)c1ccco1	5.32

###

testDescription: Half life in Sprague-Dawley rat at 5 mg/kg, iv measured up to 48 hrs by LC-MS/MS analysis
Assay type: ADME, organism-based
conditionDescription: in vivo

compoundStructureString	quantityUnit	half-life
COC[C@H](NC(=O)[C@H](CC(=O)NCC(C)(C)C)NS(=O)(=O)c1ccc(C)cc1)C(=O)N[C@@H](CC(C)C)C(=O)c1ccco1	min	13.8
